experiment: in vitro; settings: human, ahh-1 cells, RELATIVE SURVIVAL, 10 μM × 24 hours; induction BP

| Smiles text | Unit info | viability at 24 h, 10 µM |
| --- | --- | --- |
| c1ccc2c(c1)cc1ccc3cccc4ccc2c1c34 | % | 82 |

====

experiment: in vitro; conditions: human, ahh-1 cells, RELATIVE SURVIVAL, 3 μM × 48 hours; induction CEPE
Measured property: viability at 48 h, 3 µM (%)

| Smiles text | Experimental result |
| --- | --- |
| C1=Cc2cc3cccc4ccc5ccc1c2c5c43 | 63 |

====

assay: in vitro; settings: human, ahh-1 cells, RELATIVE SURVIVAL, 300 μM × 48 hours; induction none

| Molecule | Unit info | viability at 48 h, 300 µM |
| --- | --- | --- |
| C/C=C(/C)C(=O)O[C@H]1CCN2CC=C(COC(=O)[C@@](O)([C@H](C)OC)C(C)(C)O)[C@H]12 [LSCP, lasiocarpine] | % | 89 |

====

experiment: in vitro; settings: human, ahh-1 cells, RELATIVE SURVIVAL, 30 μM × 24 hours; induction BP

| Molecule | viability at 24 h, 30 µM / % |
| --- | --- |
| c1ccc2c(c1)cc1ccc3cccc4ccc2c1c34 [BaP, benzo(a)pyrene] | 75 |

====

assay: in vitro; details: human, ahh-1 cells, RELATIVE SURVIVAL, 10 μM × 48 hours; induction BNF

| Compound | Unit info | viability at 48 h, 10 µM |
| --- | --- | --- |
| c1cc2cccc3c4cccc5cccc(c(c1)c23)c54 [Per, perylene] | % | 89 |
| C/C=C(/C)C(=O)O[C@H]1CCN2CC=C(COC(=O)[C@@](O)([C@H](C)OC)C(C)(C)O)[C@H]12 [LSCP, lasiocarpine] | % | 103 |

====

experiment: in vitro; settings: human, ahh-1 cells, RELATIVE SURVIVAL, 600 μM × 48 hours; induction none

| Smiles text | Unit info | viability at 48 h, 600 µM |
| --- | --- | --- |
| C/C=C(/C)C(=O)O[C@H]1CCN2CC=C(COC(=O)[C@@](O)([C@H](C)OC)C(C)(C)O)[C@H]12 | % | 82 |

====

test: in vitro; format: cell-based; settings: human, ahh-1 cells, 0.5 μg/ml at 24 hrs, read-out: Relative Survival
Measured property: viability at 24 h (%)

| Smiles text | Measured property | Experimental result |
| --- | --- | --- |
| COc1ccc2nc3cc(Cl)ccc3c(NCCCNCCCl)c2c1 | viability at 24 h | 48 |

====

test: in vitro; conditions: human, ahh-1 cells, RELATIVE SURVIVAL, 10 μM × 48 hours; induction none

| Molecule | viability at 48 h, 10 µM / % |
| --- | --- |
| c1cc2cccc3c4cccc5cccc(c(c1)c23)c54 [Per, perylene] | 93 |

====

experiment: in vitro; details: human, ahh-1 cells, RELATIVE SURVIVAL, 25 μM × 48 hours; induction none

| Smiles text | viability at 48 h, 25 µM [%] |
| --- | --- |
| Cc1cccc2c1ccc1ccccc12 | 54 |
| CC(=O)Nc1ccc2c(c1)Cc1ccccc1-2 | 73 |
